System: TFEB
PROTOCOL_NOTES: TFEB nuclear translocation assay
Format: cell-based
EXPERIMENTAL_SETUP: Homo sapiens; HeLa wt or HeLa TRPML1 KO cells, treated for 2 hrs; ratio of nuclear to ring-region TFEB intensity
pEC50: −log10 of the molar value.
ASSAY_READOUT: pEC50

- Cc1cccc(S(=O)(=O)N2CC3(CCCC3)c3ccccc32)c1: 5.10 to 5.70
- CC1(C)COc2ccc(S(=O)(=O)N3CC4(CCCC4)c4ccccc43)cc21: ≥ 5.70
- CN(C)S(=O)(=O)c1ccc(S(=O)(=O)N2CC3(CCN(CC4CCOCC4)CC3)c3ccccc32)cc1: ≥ 5.70
- O=S(=O)(c1ccc(C2CC2(F)F)cc1)N1CC2(CCCC2)c2ccccc21 (centres unmarked): 5.10 to 5.70

Please tell me: pEC50 of `Cc1ccc2c(c1)N(S(=O)(=O)c1ccc(S(=O)(=O)N(C)C)cc1)CC21CCCC1` , system TFEB?
≥ 5.70

Same read-out for `O=S(=O)(c1ccc(C(F)F)cc1)N1CC2(CCN(Cc3ncccn3)CC2)c2ccccc21` ?
5.00 to 5.10

Same read-out for O=S(=O)(c1ccc2c(c1)CCC(C(F)F)O2)N1CC2(CCCC2)c2ccccc21 (centres unmarked) ?
5.10 to 5.70

Same read-out for `O=S(=O)(c1cccc(C2CC2)c1)N1CC2(CCCC2)c2ccccc21` ?
5.10 to 5.70
